pKi by entry:
Biological target: α6β3β4α5 nAChR (Homo sapiens, UniProt P30926+Q15825)
Construct: expressed in transfected cells; host or cells: SH-EP1 human epithelial cells
Sequence (Q15825 26-494): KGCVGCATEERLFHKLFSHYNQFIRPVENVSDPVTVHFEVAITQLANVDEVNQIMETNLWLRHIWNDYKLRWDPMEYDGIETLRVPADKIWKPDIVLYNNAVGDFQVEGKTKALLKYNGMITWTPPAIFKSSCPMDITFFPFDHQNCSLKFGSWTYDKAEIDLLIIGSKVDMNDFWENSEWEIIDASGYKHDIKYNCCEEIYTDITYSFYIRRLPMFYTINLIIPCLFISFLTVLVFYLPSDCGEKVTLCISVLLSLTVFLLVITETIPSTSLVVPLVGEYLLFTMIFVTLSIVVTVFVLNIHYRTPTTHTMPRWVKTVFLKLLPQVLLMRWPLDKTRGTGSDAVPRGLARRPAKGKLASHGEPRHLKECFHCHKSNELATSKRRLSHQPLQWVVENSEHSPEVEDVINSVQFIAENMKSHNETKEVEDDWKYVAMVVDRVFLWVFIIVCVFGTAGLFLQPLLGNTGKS
Sequence (Q05901 25-458 partner limits assumed): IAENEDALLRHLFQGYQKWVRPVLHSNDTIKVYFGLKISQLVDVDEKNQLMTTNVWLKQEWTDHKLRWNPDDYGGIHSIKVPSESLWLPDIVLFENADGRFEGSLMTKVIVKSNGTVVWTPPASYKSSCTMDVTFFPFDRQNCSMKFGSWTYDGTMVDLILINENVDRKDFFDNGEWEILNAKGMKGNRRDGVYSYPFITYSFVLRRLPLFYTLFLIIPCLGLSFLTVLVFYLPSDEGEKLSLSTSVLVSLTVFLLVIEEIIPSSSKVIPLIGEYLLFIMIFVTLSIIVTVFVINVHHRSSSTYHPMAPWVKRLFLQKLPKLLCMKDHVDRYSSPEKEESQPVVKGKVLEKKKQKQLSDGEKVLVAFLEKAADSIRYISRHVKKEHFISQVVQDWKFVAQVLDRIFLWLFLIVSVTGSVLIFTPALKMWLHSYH
Sequence (P30926 22-498): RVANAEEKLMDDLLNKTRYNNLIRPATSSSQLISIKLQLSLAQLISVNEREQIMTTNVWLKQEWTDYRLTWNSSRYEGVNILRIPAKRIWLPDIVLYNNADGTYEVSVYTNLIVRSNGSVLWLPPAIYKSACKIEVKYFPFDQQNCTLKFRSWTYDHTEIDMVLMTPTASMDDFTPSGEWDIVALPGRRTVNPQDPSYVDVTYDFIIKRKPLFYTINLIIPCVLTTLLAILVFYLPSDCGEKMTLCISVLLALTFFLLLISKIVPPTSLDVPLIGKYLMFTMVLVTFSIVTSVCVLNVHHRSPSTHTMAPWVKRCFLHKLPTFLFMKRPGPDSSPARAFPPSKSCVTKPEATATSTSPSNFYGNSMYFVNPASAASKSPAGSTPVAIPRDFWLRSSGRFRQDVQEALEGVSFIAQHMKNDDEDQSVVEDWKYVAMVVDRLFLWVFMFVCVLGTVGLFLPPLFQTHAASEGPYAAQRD
Sequence (P30532 23-468 partner): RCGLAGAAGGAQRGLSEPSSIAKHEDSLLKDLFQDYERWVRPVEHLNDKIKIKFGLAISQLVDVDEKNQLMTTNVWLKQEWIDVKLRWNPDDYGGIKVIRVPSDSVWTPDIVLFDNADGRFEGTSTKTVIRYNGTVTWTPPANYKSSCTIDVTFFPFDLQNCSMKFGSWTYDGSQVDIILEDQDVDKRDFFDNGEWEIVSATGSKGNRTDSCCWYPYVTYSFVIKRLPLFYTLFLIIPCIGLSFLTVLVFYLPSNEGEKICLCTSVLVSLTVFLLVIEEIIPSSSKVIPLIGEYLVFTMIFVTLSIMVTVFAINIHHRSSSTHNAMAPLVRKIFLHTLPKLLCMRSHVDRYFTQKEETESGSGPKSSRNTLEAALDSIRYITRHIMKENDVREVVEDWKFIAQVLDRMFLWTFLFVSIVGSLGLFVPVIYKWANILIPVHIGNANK
Experiment: [3H]-epibatidine binding to SH-EP1 α6β3β4α5 cell membranes (saturation and competition)
Conditions: SH-EP1 cells; Table 1; read-out: Ki α6β3β4α5 [3H]-EPI Binding
pKi here is simply -log10 of the concentration when that concentration is written in mol/L.

Below: 5 molecules and their reported pKi.
[
  {
    "Molecule": "CCN1C[C@]2(COC(=O)c3ccccc3N3C(=O)C[C@H](C)C3=O)CC[C@H](OC)[C@]34C5C[C@@H]6[C@@H](OC)C[C@@](O)(C5[C@H]6OC(C)=O)[C@](O)(C13)[C@@H](OC)C24 (stereo partly drawn) [NUD, nudikauline]",
    "Measured target": "α6β3β4α5 nAChR (Homo sapiens, UniProt P30926+Q15825)",
    "Readout kind": "pKi",
    "Measured result": 6.43
  },
  {
    "Molecule": "CN1[C@@H](CC(=O)c2ccccc2)CCC[C@H]1C[C@H](O)c1ccccc1 [(-)-LOB, lobeline]",
    "Measured target": "α6β3β4α5 nAChR (Homo sapiens, UniProt P30926+Q15825)",
    "Readout kind": "pKi",
    "Measured result": 8.15
  },
  {
    "Molecule": "Cc1cc([C@@H]2CCCN2C)on1 [ABT-418]",
    "Measured target": "α6β3β4α5 nAChR (Homo sapiens, UniProt P30926+Q15825)",
    "Readout kind": "pKi",
    "Measured result": 6.07
  },
  {
    "Molecule": "C#Cc1cncc([C@@H]2CCCN2C)c1 [SIB-1508Y, altinicline]",
    "Measured target": "α6β3β4α5 nAChR (Homo sapiens, UniProt P30926+Q15825)",
    "Readout kind": "pKi",
    "Measured result": 6.02
  },
  {
    "Molecule": "c1cncc(OC[C@@H]2CCN2)c1 [A-85380, 3-[2(S)-azetidinylmethoxy]pyridine]",
    "Measured target": "α6β3β4α5 nAChR (Homo sapiens, UniProt P30926+Q15825)",
    "Readout kind": "pKi",
    "Measured result": 8.05
  }
]

Problem: Reported pKi, molecule CCN1C[C@]2(COC(=O)c3ccccc3N3C(=O)C[C@H](C)C3=O)CC[C@H](OC)[C@@]34[C@@H]5C[C@H]6[C@H](OC)[C@@H]5[C@](O)(C[C@@H]6OC)[C@@](O)([C@@H](OC)[C@H]23)[C@@H]14 [MLA, methyllycaconitine] : ____
Solution: 6.80

Problem: So what's the measured pKi for this one? C[N+](C)(C)CCOC(N)=O [CAR, carbachol]
Solution: 5.46

Problem: Would you mind telling me what pKi value was observed for CNC(=O)OCC[N+](C)(C)C [MCC, methylcarbamylcholine] ?
Solution: 6.01

Problem: Entry COc1ccc(/C=C2\CCCN=C2c2cccnc2)c(OC)c1 [GTS-21, (2.4)-dimethoxybenzylidene anabaseine] has what pKi?
Solution: 5.85

* * *

Target: α6β3β4α5 nAChR (Homo sapiens, UniProt P30926+Q15825)
Construct: expressed in transfected cells; host or cells: SH-EP1 human epithelial cells
Experiment: [3H]-epibatidine binding to SH-EP1 α6β3β4α5 cell membranes (saturation and competition)
Details: Ki α6β3β4α5 [3H]-EPI Binding
Readout kind: Ki (nM)
Your answer should be a plain number; it is taken to be in nM.

[
  {
    "Molecule": "CN1CCCC1c1cccnc1 (single isomer, unassigned; (-)) [(-)-NIC, nicotine]",
    "Ki (nM)": 160
  }
]

# next molecule below
Problem: Name the reported Ki value associated with the molecule Clc1ccc(C2CC3CCC2N3)cn1 (stereo not drawn) [EPI, epibatidine]
Solution: 0.07
